system tested: GCGR (Homo sapiens)
Construct: purchased Promega (in-house HiBiT-GPCR construct library, NanoBRET)
Sequence (P47871 26-477): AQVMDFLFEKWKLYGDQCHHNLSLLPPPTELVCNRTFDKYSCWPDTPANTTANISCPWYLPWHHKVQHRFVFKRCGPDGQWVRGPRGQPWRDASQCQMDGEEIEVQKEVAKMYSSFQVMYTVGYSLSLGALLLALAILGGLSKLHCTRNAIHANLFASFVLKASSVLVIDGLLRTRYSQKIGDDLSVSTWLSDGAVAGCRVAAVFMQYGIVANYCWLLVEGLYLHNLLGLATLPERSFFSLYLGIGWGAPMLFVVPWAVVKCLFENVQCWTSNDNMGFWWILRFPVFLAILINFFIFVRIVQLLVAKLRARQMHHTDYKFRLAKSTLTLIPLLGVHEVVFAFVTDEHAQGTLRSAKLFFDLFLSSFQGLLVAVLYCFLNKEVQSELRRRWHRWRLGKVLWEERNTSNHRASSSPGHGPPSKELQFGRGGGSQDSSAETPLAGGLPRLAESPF
protocol notes: NanoBRET screen HiBiT-GCGR in HEK293
Type: binding
condition details: GCGR; tracer 0.1μM
recorded metric: NanoBRET Fold Response
Lab note: write the figure by itself, no unit.

In: For the molecule "COc1ccccc1N1CCN(CCCCN2C(=O)c3ccc(CNC(=O)CCOCCOCCOCCOCCNC(=O)CCc4ccc5n4[B-](F)(F)[N+]4=C(c6ccc[nH]6)C=CC4=C5)cc3C2=O)CC1" , what NanoBRET Fold Response is on record?
Out: 1.06

In: Tell me the measured NanoBRET Fold Response of "CN(C)CCC=C1c2ccccc2CCc2ccc(C(=O)NCCNC(=O)CCOCCOCCOCCOCCNC(=O)CCc3ccc4n3[B-](F)(F)[N+]3=C(c5ccc[nH]5)C=CC3=C4)cc21" , please.
Out: 0.91

In: Bench note: what NanoBRET Fold Response did "N#CN=C(NCCCOc1cccc(CN2CCCCC2)c1)NCCNC(=O)CCOCCOCCOCCOCCNC(=O)CCc1ccc2n1[B-](F)(F)[N+]1=C(c3ccc[nH]3)C=CC1=C2" show?
Out: 0.95

In: Consider the molecule "Cc1cc2c(s1)Nc1ccccc1N=C2N1CCN(CCCNC(=O)CCOCCOCCOCCOCCNC(=O)CCc2ccc3n2[B-](F)(F)[N+]2=C(c4ccc[nH]4)C=CC2=C3)CC1" and give its measured NanoBRET Fold Response.
Out: 0.97

In: Recorded NanoBRET Fold Response of O=C(CCc1ccc2n1[B-](F)(F)[N+]1=C(c3ccc[nH]3)C=CC1=C2)NCc1ccc(C(=O)NCCOCCC(=O)N[C@@H]2CC[C@@]3(O)[C@H]4Cc5ccc(O)c6c5[C@@]3(CCN4CC3CC3)[C@H]2O6)cc1 [Naltrexone-3-NB590] , please.
Out: 1.06
